target: NAD-dependent protein deacetylase sirtuin-1 (Homo sapiens) (UniProt Q96EB6)
Sequence (Q96EB6 whole entry): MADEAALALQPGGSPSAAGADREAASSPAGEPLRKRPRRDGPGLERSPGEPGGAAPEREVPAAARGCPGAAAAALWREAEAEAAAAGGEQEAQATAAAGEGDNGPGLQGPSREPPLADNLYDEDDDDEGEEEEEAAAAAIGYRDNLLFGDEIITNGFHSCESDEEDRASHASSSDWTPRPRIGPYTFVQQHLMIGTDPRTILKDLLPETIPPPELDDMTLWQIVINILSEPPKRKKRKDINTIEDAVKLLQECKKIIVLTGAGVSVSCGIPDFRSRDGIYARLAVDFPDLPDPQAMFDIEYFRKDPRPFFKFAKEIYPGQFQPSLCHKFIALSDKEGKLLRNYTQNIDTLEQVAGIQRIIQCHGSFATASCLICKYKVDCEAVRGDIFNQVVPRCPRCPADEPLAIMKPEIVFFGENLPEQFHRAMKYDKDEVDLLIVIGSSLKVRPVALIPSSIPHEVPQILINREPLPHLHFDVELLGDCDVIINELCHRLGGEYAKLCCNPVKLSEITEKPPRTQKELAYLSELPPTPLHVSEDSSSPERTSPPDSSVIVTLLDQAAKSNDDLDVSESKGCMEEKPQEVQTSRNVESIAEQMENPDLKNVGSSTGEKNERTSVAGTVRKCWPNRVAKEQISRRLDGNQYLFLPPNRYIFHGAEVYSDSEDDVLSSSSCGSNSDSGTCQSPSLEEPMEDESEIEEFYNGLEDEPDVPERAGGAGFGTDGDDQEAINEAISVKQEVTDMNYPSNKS
test.name: Inhibition of SIRT1-mediated endogenous p53 deacetylase activity in human Namalwa cells assessed as concentration required to […] to twice the basal level after 3 hrs by ELISA
Format: cell-based
measured.parameter: INH (µM)

Example entries and their recorded answers appear below.
# INH (compound: NC(=O)C1CCCc2c(-c3nc4ccccc4s3)n[nH]c21 (racemic) ) is 0.9

Lab note: NC(=O)C1CCCc2c(-c3ccc(Cl)c(Cl)c3)n[nH]c21 (racemic) gave INH of 1.2

INH in this record for NC(=O)C1CCCCc2c(-c3ccc(Cl)cc3)n[nH]c21 (racemic) : 0.8

Measured INH, CC1(C)Cc2c(-c3ccc(Cl)cc3)n[nH]c2C(C(N)=O)C1 (racemic) : 1.2

[A] NC(=O)C1CCCc2c(-c3ccc(Br)cc3)n[nH]c21 (racemic)
[B] NC(=O)C1CCCc2c(-c3ccc(Cl)cc3)n[nH]c21 (racemic)
Looking at recorded values for INH, does A or B come in lower? Write down the label of the entry you select.
B
